B1: KRT18 (parent)
chain: PQVRDWSHYFKIIEDLRAQIFANT

Variants of: B1
Test: protein stability index of a GFP-peptide fusion (GPS, HEK-293T) (PSI 1-6); higher = more stable;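 further: lentivirally expressed fusions sorted by FACS into six bins by GFP to DsRed ratio, PSI derived from sequencing read proportions per bin multiplied by bin number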
Details: c terminus: a fixed tail appended
Readout Label: protein stability index
API note: the answer field is a bare number with no unit suffix.

So for PQVRDWSHYFKIIELLRAQIFANT [D15L] , the logged protein stability index turned out to be 2.69

So for PQVRDWSHYFKIIEDLRAQIFMNT [A22M] , the logged protein stability index turned out to be 2.37

So for PQVRDWSHYSKIIEDLRAQIFANT [F10S] , the logged protein stability index turned out to be 2.15

So for PQVRDWSHYFKIIEHLRAQIFANT [D15H] , the logged protein stability index turned out to be 1.57

So for PQVRDWSHYFKIIEDLRAQIEANT [F21E] , the logged protein stability index turned out to be 2.98

So for PQVRDWSTYFKIIEDLRAQIFANT [H8T] , the logged protein stability index turned out to be 1.6

So for PQVRDWSHYFKIHEDLRAQIFANT [I13H] , the logged protein stability index turned out to be 2.16

So for PQVRDWSHYFKIIEYLRAQIFANT [D15Y] , the logged protein stability index turned out to be 3.62
